measured target: T1, native human ApoC3 (human, UniProt P02656 21-99, biotinylated in the captured-antigen assays (Tables 6 and 8); sites not stated)
T1 construct: also called nhuApoC3; native huApoC3
T1 sequence (P02656 21-99): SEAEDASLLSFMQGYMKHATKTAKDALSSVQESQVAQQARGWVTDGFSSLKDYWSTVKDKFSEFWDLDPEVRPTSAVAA
protocol notes: SPR, IgG captured via anti-human Fc, ApoC3 analyte 100 nM
value type: kon (M⁻¹ s⁻¹)
API: value field is a number in M⁻¹ s⁻¹; no unit string.

Study these solved cases before continuing.
binder: 29A05 IgG (antibody, V domains shown) VH: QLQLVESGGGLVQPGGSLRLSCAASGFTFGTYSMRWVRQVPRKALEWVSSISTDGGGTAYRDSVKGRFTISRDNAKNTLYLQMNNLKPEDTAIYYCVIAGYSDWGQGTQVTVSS VL: DVVLTQTPGSLSVVPGESASISCKASQSLVYSDGKTYLYWLLQKPGQSPQRLIYQVSNRDSGVPDRFTGSGSGTDFTLKISGVKVEDAGVYYCAQGTYWPKTFGQGTKLEIK
kon (M⁻¹ s⁻¹): 206000

binder: 29F10 IgG (antibody, V domains shown) VH: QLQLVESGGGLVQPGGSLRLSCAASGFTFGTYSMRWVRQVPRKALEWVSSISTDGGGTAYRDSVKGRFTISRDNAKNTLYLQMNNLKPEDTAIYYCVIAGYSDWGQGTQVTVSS VL: DVVLTQTPGSLSVVPGEPASVSCKASQSLVHPDGKTYLYWLLQKPGQSPQRLIYQVSNRGSGVPDRFTGSGSGTDFTLEISGVKAEDAGVYYCAQGTYWPKTFGQGTKLEIK
kon (M⁻¹ s⁻¹): 134000

Attention now turns to another entry.
5E5 WT IgG (antibody, V domains shown, Full-length IgG captured by an anti-human Fc antibody) VH: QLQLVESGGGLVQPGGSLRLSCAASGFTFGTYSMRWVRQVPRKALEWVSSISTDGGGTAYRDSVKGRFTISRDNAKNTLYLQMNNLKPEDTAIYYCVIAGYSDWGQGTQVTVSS VL: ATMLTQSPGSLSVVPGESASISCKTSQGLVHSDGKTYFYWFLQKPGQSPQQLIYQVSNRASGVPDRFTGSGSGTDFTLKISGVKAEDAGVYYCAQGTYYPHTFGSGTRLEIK has a reported kon of 165000
